conditions: in n-propanol, 308.15 K
ASSAY_READOUT: solubility (mole fraction)

* CN1CCN(C(=O)O[C@H]2c3nccnc3C(=O)N2c2ccc(Cl)cn2)CC1 | 0.000382

* * *

details: in acetone, 298.15 K
ASSAY_READOUT: solubility (mole fraction)

* CN1CCN(C(=O)O[C@H]2c3nccnc3C(=O)N2c2ccc(Cl)cn2)CC1 | 0.0019

* * *

conditions: in n-propanol, 293.15 K
ASSAY_READOUT: solubility (mole fraction)

- CN1CCN(C(=O)O[C@H]2c3nccnc3C(=O)N2c2ccc(Cl)cn2)CC1: 0.000172

* * *

conditions: in methyl acetate, 313.15 K
ASSAY_READOUT: solubility (mole fraction)

- CN1CCN(C(=O)O[C@H]2c3nccnc3C(=O)N2c2ccc(Cl)cn2)CC1: 0.00414
